Experiment: cell viability in Huh7 cells, primary screen, cytotoxicity control for HCV replication inhibitor project, CellTiter-Glo luminescence, basal, 48 h (AID 1143);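 note: Huh7 hepatoma cells carrying a hepatitis C replication reporter with no stimulus; test concentration not given here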
Settings: Huh7 HCV replicon, higher = more signal, called active from +8 up or from −8 down
Class 1.0: z-score at least -0.7. Class 0.0: z-score below -0.7.

compound | class-name
O=C(NCC(F)(F)F)[C@@H]1c2ccccc2C(=O)N(CC23CC4CC(CC(C4)C2)C3)[C@H]1c1ccc(CO)cc1 | 0.0
COC(=O)[C@@]1(Cc2ccccc2CN=[N+]=[N-])COC(c2ccc(OCCCO)cc2)=N1 | 0.0
COc1ccc(CCNC(=O)[C@@]2(Sc3ccc(C)cc3)CC(=O)N(Cc3cc(C(F)(F)F)cc(C(F)(F)F)c3)[C@@H]2c2ccc(CO)cc2)cc1 | 1.0
CCOC(=O)C1=CC[C@@H](c2ccc(F)cc2)N(S(=O)(=O)c2ccc(C)cc2)[C@H]1c1ccc([N+](=O)[O-])cc1 | 0.0
COCCCNC(=O)[C@@]1(Sc2ccc(C)cc2)CC(=O)N(C2CCCCC2)[C@@H]1c1ccc(CO)cc1I | 0.0
CCOC(=O)C[C@H]1[C@H](OC(=O)c2ccc(C(=O)c3ccccc3)cc2)[C@@H](NC(=O)c2ccc3ccccc3c2)c2cc(OCCCO)ccc2N1C(=O)c1ccc2ccccc2n1 | 1.0
COC(=O)[C@]1(CO)N=C(c2ccc(OCCCO)cc2)O[C@@H]1c1ccccc1CN=[N+]=[N-] | 1.0
CC(C)CNC(=O)[C@@]1(C)c2ccccc2C(=O)N(Cc2cc(F)cc(C(F)(F)F)c2)[C@H]1c1ccc(CO)cc1 | 1.0
COC(=O)[C@@]1(Cc2ccc(OC)cc2)[C@H]2c3cc(C(=O)N(C)C)n(Cc4ccsc4Br)c3C[C@H]2CN1C(=O)c1ccccc1 | 1.0
COC(=O)[C@@]1(Cc2ccc(F)cc2)[C@H]2c3cc(C(=O)N(C)C)n(CCN4CCOCC4)c3C[C@H]2CN1C(=O)c1ccccc1 | 0.0

[in] Is it the case that C=CCC(OC(C)=O)[C@@H]1[C@@H](N(Cc2cccc3ccccc23)C(=O)c2ccc(-c3ccccc3)cc2)c2cc(OCCCO)ccc2N1C(=O)c1ccc2ccccc2n1 (some centres undefined) has z-score reaching or exceeding -0.7?
[out] 1.0

[in] Threshold query (z-score >= -0.7) on COCCOC(=O)N1C(=O)[C@@]2(c3cc(C#CC4=CCCCC4)ccc31)[C@H](c1ccc(OCCO)cc1)N1[C@H](c3ccccc3)[C@H](c3ccccc3)OC(=O)[C@H]1[C@@H]2C(=O)N1CCCCCCC1
[out] 0.0

[in] Could you please find out whether COc1ccccc1CN1C(=O)c2ccccc2[C@](Cc2ccccc2I)(C(=O)NCCCN(C)C)[C@@H]1c1ccc(CO)cc1 has z-score that meets -0.7 or exceeds it?
[out] 0.0

* * *

Some compounds, each annotated with its measured composite z-score.
Test: binders of probe aHhip on microarray, primary screen, stem cell growth factor project, biochemical, small-molecule microarray, fluorescence 635/667 (AID 1087);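 note: score merges spot fluorescence at 667nm with spot signal to noise ratio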
Details: higher = more signal

Known composite z-score results, listed for orientation:
compound | composite z-score
C=CC[C@@]1(C(=O)O)N=C(c2ccc(OCCCO)cc2)O[C@@H]1c1ccccc1CN=[N+]=[N-] | -0.007
CCCCCN1CC=CC23O[C@@H]4C=CCOC(=O)[C@@H]4[C@H]2C(=O)N(CCCCCO)[C@@H]3C1=O (some centres undefined) | -0.261

[in] Entry CC(=O)NCCCC[C@@H]1NC(=O)[C@H]2C[C@@H](C(=O)NCCCCCC[N+](C)(C)C)[C@@H](c3ccc(O)cc3)N2C1=O : reported composite z-score = ?
[out] -0.199

[in] Name the recorded composite z-score for CN(C)C(=O)[C@]1(Cc2ccccc2CN=[N+]=[N-])N=C(c2ccc(OCCCO)cc2)O[C@@H]1c1ccccc1N=[N+]=[N-] .
[out] -0.264
